Can you tell me pKd for the items I'm about to list?
- study.target: T1, cynomolgus (Macaca fascicularis) ST2L extracellular domain with C-terminal His6 tag (Macaca fascicularis (cynomolgus), UniProt Q01638 19-321 (human entry))
- T1 construct: also called cyno ST2L-ECD; cynoST2L-ECD
- T1 chain: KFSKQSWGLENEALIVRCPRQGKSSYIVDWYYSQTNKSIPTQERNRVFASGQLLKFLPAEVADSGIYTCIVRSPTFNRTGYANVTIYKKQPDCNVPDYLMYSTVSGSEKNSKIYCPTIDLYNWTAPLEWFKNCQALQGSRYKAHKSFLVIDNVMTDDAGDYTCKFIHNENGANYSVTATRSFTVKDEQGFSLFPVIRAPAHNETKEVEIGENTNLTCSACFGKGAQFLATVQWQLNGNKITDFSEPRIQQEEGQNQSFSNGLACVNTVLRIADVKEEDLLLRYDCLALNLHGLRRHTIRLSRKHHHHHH
- test.summary: SPR, mAb captured, ST2L-ECD in solution
Expect pKd as a plain number equal to -log10 of the molar concentration.

// field: pKd; key: STLM212 (antibody, V domains shown, frameworks VH3-23 / Vk-L6) VH: EVQLLESGGGLVQPGGSLRLSCAASGFTFSVYDMIWVRQAPGKGLEWVSTIRGEGGGTYYADSVKGRFTISRDNSKNTLYLQMNSLRAEDTAVYYCARDPWSTEGSFFVLDYWGQGTLVTVSS VL: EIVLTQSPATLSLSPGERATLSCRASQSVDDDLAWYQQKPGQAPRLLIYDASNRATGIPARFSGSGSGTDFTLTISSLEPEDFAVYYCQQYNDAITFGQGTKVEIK ; value = 10.62

// field: pKd; key: STLM108 (antibody, V domains shown, frameworks VH3-23 / Vk-L6) VH: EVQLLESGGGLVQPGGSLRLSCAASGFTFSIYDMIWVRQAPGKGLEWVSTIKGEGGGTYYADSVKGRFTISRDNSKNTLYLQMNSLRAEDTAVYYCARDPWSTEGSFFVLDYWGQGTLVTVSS VL: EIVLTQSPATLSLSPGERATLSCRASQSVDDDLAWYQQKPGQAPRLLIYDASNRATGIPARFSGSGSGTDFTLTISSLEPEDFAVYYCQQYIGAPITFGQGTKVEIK ; value = 10.54

// field: pKd; key: STLM213 (antibody, V domains shown, frameworks VH3-23 / Vk-L6) VH: EVQLLESGGGLVQPGGSLRLSCAASGFTFSFYDMIWVRQAPGKGLEWVSTIRGEGGDTNYADSVKGRFTISRDNSKNTLYLQMNSLRAEDTAVYYCARDPWSTEGSFFVLDYWGQGTLVTVSS VL: EIVLTQSPATLSLSPGERATLSCRASQSVDDDLAWYQQKPGQAPRLLIYDASNRATGIPARFSGSGSGTDFTLTISSLEPEDFAVYYCQQYIDAPLTFGQGTKVEIK ; value = 11.10

These data points were gathered from patent US20170066831A1.
